target: HSA (Homo sapiens)
Sequence (P02768 25-609): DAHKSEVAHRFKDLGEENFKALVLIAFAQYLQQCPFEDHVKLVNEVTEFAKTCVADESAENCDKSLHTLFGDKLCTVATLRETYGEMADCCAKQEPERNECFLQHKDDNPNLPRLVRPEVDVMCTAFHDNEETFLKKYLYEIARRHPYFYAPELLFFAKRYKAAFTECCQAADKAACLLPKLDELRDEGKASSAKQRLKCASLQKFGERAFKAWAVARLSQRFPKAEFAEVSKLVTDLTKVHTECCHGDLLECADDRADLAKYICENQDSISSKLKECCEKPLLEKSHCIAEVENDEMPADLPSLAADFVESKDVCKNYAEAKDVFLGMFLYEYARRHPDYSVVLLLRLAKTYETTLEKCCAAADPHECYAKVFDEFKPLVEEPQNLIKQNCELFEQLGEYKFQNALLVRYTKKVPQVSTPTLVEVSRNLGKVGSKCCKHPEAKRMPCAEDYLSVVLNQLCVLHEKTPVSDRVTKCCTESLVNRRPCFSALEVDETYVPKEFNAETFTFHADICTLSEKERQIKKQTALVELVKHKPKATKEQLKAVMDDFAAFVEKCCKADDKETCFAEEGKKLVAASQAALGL
test-description: Equilibrium dialysis
readout-label: pKd
Quick note: pKd values are minus log10 of concentrations in mol/L.

In: For the molecule CC(C)(C(=O)NCC(F)(F)C(F)(F)F)C(=O)N[C@@H]1C(=O)Nc2ccccc2-c2ccccc21 [RO4929097, RO4929097 (γ-secretase inhibitor)] , what pKd is on record?
Out: 4.04

====

test-description: in vitro
conditions-used: human, human plasma, pH 7.2
readout-label: fraction unbound at 24 h
Write the value as a bare number.

In: Need fraction unbound at 24 h of CC(C)(C(=O)NCC(F)(F)C(F)(F)F)C(=O)N[C@@H]1C(=O)Nc2ccccc2-c2ccccc21 [RO4929097] , thanks.
Out: 0.047
